Reference source for all entries: patent US4472428A

assay: chemical stability at pH 7.4 (half period from UV absorption at 210 nm); format: physicochemical; settings: pH 7.4 phosphate buffer, room temperature, UV 210 nm
Where a name gives a salt, the structure may show the parent alone.
quantity.kind: half-life

Which half-life reading was recorded for the compound CCCCCC(O)C=CC1C(O)CC2OC(=C(Cl)CCCC(=O)O)CC21 (stereo not shown) [Compound 686, (5E)-5-chloro-PGI2, sodium salt] ?
~22 days

----------
System: platelet aggregation
Assay: in vitro inhibitory activity of platelet aggregation (ADP-induced, rabbit PRP)
Type: cell-based, rabbit (Japanese domestic white male)
Conditions: Oryctolagus cuniculus, Platelet; 0 hr; rabbit PRP, 10 μM ADP, 37° C.; read-out: IC50 (minimum concentration which inhibited more than 50% of platelet aggregation)
Procedure: (1) in vitro inhibitory activity of platelet aggregation: The in vitro platelet aggregation inhibiting activities of the compounds of the invention were examined by using rabbits. […] By using an aggregometer, changes in transmission were recorded. The drug was dissolved in ethanol to a concentration of 10 mg/ml. When its activity was measured, it was used after being diluted with phosphate buffer (pH 7.4). […] The rate of inhibition of platelet aggregation was determined from the following equation. […]
Structures can show the parent of a compound that is named as a salt.
Reported IC50 values follow for various compounds

Observe how each entry below is paired with its result.
CCCCCC(O)C=CC1C(O)CC2OC(=C(Cl)CCCC(=O)OC)CC21 (centres unmarked) [Compound 636, (5E)-5-chloro-PGI2 methyl ester]; 0.62 µg/mL
CCCCCC(O)C=CC1C(O)CC2OC(=CCCCC(=O)OC)C(F)C21 (centres unmarked) [Compound 637, 7-fluoro-PGI2 methyl ester]; 0.34 µg/mL
CCCCC[C@H](O)/C=C/[C@@H]1[C@H]2C/C(=C/CCCC(=O)O)O[C@H]2C[C@H]1O [PGI2, Prostaglandin I2, reference compound]; 0.0047 µg/mL

Test system platelet aggregation; read-out IC50; what value for CCCCCC(O)C=CC1C(O)CC2OC(=C(Cl)CCCC(=O)O)CC21 (centres unmarked) [Compound 686, (5E)-5-chloro-PGI2, sodium salt] ?
0.14 µg/mL

Test system platelet aggregation; read-out IC50; what value for CCCCCC(O)C=CC1C(O)CC2OC(=CCCCC(=O)O)C(F)C21 (centres unmarked) [Compound 688, sodium salt of 7-fluoro-PGI2] ?
0.05 µg/mL
